Entries annotated with measured binding response (% of control)
target: Mitogen-activated protein kinase kinase kinase 3 (Homo sapiens); experiment: modulators of MEKK3-MEK5 PB1 binding, primary screen, biochemical, wildtype MEKK3, multiplex bead flow cytometry, Alexa488-MEK5 (AID 1529); conditions: bead-based flow cytometry, Alexa488-MEK5 binding to MEKK3; at 10 µM; actives lie on both sides; 0 = blocked by unlabeled MEK5, 100 = vehicle;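 note: Alexa488 bead fluorescence after subtracting the streptavidin-only scavenger bead signal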
Hit rate of the full screen: of about 290,000 compounds, about 4,200 (1.4%) were called active. The sample holds actives, similar compounds and a random draw of the others, so the mix is not that of the screen.
Provide only the numeric value, understood in %.

Take a look at these entries with their results.
{"columns": ["smiles str", "binding response (% of control) (%)"],
 "data": [
  ["CC(=O)Nc1ccc(S(=O)(=O)N2CCC(C(=O)NC3CC3)CC2)cc1", 104],
  ["COC(=O)C1=C[C@@H](C(=O)OC)[C@@H]2C3=C(C(=O)[C@]2(C)NC(=O)c2ccccc2)[C@H](C)n2c(=O)n(C)c(=O)n2[C@@H]3C1", 108],
  ["CO/N=C(\\N)c1ccc([N+](=O)[O-])cc1", 98]
]}

Q) Read off the recorded binding response (% of control) for O=C(N/N=C/c1cccc([N+](=O)[O-])c1)c1ccncc1
A) 107

Q) Read off the recorded binding response (% of control) for Cc1csc(NC(=O)CSc2nnc(-c3cccnc3)o2)n1
A) 99
